Procedure Details: Oral bioavailability in rat at 100 mg/kg administered via gavage by HPLC/MS analysis
Type: ADME, organism-based
Measurement Parameters: in vivo
Property Measured: bioavailability (%)
Return type: number; implicit unit %.

Tell me bioavailability reported for O=C(O)c1c(F)ccc2c1OB(O)[C@@H]1C[C@H]21
42.6

###

Target Or System: Beta-lactamase (Klebsiella pneumoniae) (UniProt Q93LQ9)
Sequence (Q93LQ9 as listed by the source): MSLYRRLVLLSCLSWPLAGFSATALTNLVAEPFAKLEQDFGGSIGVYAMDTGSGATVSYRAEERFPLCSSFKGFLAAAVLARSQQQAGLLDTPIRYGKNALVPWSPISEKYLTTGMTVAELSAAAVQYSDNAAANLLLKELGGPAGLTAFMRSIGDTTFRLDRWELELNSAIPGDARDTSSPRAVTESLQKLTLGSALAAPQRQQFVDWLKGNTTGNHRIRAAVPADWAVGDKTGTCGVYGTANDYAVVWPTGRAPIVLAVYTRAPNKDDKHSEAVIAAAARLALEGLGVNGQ
Procedure Details: Inhibition of Klebsiella pneumoniae KP1004 KPC-2 assessed as minimum concentration of compound needed to reduce the MIC of aztreonam to 4 ug/ml
Consider the following molecules and their measured MEC readings.
// return numeric value only (unit: µg/mL, not printed)

A selection of reference data follows.
Molecule: CSCCOc1ccc2c(c1C(=O)O)OB(O)[C@@H](Sc1nncs1)C2
Units: µg/mL
MEC: 20

Molecule: O=C(O)c1c(OC(F)F)ccc2c1OB(O)[C@@H](Sc1nncs1)C2
Units: µg/mL
MEC: 5

Give measured MEC for COc1ccc2c(c1C(=O)O)OB(O)C(CO)C2 (stereo unspecified) (Beta-lactamase (Klebsiella pneumoniae) (UniProt Q93LQ9)).
10

# lookup: Beta-lactamase (Klebsiella pneumoniae) (UniProt Q93LQ9) MEC, key = CSCC(=O)N[C@H]1Cc2ccc(Sc3nnc(N)s3)c(C(=O)O)c2OB1O
5

Under Beta-lactamase (Klebsiella pneumoniae) (UniProt Q93LQ9): report MEC of COc1ccc2c(c1C(=O)O)OB(O)C1C2C1(F)F (stereo unspecified) .
1.25
